Test description: blockers of ER-stress CHOP reporter expression – cell-based, unfolded protein response, luciferase reporter, primary screen (AID 2732);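 also: 0% = tunicamycin plus vehicle and 100% = wells without tunicamycin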
Test settings: CHO-K1 CHOP-promoter luciferase, tunicamycin-induced, 15-18 h; at 10 µM; stronger effect = higher value
In all, about 220,000 compounds went through this assay and about 8,200 (3.7%) were called active. The list comes from a sample in which actives are over-represented; it also holds close analogues and randomly drawn compounds.
Field: inhibition. Provide a value for each of the molecules that follow.
One number for each entry, in %.

Some solved entries appear below for comparison.
>  <Molecule>
CC(C)C(c1nnnn1CCc1ccccc1)N1CCN(C(=O)c2ccco2)CC1 (centres undefined)

>  <inhibition, %>
-7.76

$$$$
>  <Molecule>
CN1CCc2ccccc2C1Cc1ccccc1NC(=O)c1sc2ccccc2c1Cl (centres undefined)

>  <inhibition, %>
24.9

$$$$
>  <Molecule>
Cc1cc(C(=O)OCC(=O)Nc2nccs2)c2ccccc2n1

>  <inhibition, %>
23.3

$$$$

For each of the items listed, what is its inhibition?
1. CSCC[C@H](NC(=O)OC(C)(C)C)C(=O)N/N=C/c1cc2ccc(C)cc2nc1Cl
2. O=C(CCCN1C(=O)/C(=C/c2ccco2)SC1=S)Nc1ccccc1
3. CC(C)C(c1nnnn1Cc1ccccc1)N1CCC(C(N)=O)CC1 (centres undefined)
4. Cn1cc(/C=C/c2nc3ccccc3c(=O)n2-c2cccc([N+](=O)[O-])c2)c2ccccc21
5. CSCC[C@H](NC(=O)NC1CCCC1)C(=O)O
6. Cn1c(=NC(=O)c2ccc3c(c2)OCCO3)sc2cc(S(C)(=O)=O)ccc21
7. CC(C)c1nc(N2CCOCC2)c(C#N)c2c1COC(C)(C)C2
8. Cc1cc(C)n(C(=O)c2ccc(S(=O)(=O)N3CCCC3)cc2)n1

Completion:
1: 73.9; 2: 32.2; 3: 76.1; 4: 86; 5: -0.23; 6: 91.9; 7: 60.3; 8: 13

For each of the items listed, what is its inhibition?
1. COc1cc2[nH]c(=S)n(Cc3ccc(F)cc3)c(=O)c2cc1OC
2. O=C(NCc1ccc2c(c1)OCO2)c1sccc1Br
3. Cc1cc2nc3c(=O)n(Cc4ccccc4)c(=O)[nH]c3nc2cc1N
4. Cc1nc(=O)c(-c2ccccc2)c(C)n1-c1ccc(Br)cc1
5. COCCn1c(=NC(=O)c2ccccc2[N+](=O)[O-])sc2cc(S(C)(=O)=O)ccc21
6. CCOC(=O)C1=C(c2ccc(OC)cc2)C(=O)c2ccccc2C1=O
7. CC(=O)c1ccc2c(c1)OCCOCCOc1ccc(C(C)=O)cc1OCCOCCO2
8. CCOC(=O)c1c(-c2ccc(C)cc2)csc1/N=C(\C)C1=C(O)c2ccccc2C1=O

Completion:
1. 90.9
2. 8.42
3. 3.92
4. 3.14
5. -7.33
6. 102
7. 1.66
8. 3.26

----------
Field: inhibition. Provide a value for each of the compounds that follow.
Test description: blockers of ER-stress CHOP reporter expression – cell-based, unfolded protein response, luciferase reporter, primary screen (AID 2732);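 also: 0% = tunicamycin plus vehicle and 100% = wells without tunicamycin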
Test settings: CHO-K1 CHOP-promoter luciferase, tunicamycin-induced, 15-18 h; at 10 µM; stronger effect = higher value
Hit rate of the full screen: of about 220,000 compounds, about 8,200 (3.7%) were called active. Many of the other results were omitted from the sample, so actives are more common in it than they were.

Some solved entries appear below for comparison.
>  <Compound>
CC1(C)CC(N2CCN(C(c3ccccc3)c3ccccc3)CC2)=CC(=[N+]2CCCCC2)C1

>  <inhibition>
65.3% (inactive)

$$$$
>  <Compound>
O=C(Nc1ccc(S(=O)(=O)Nc2nccs2)cc1)c1cc(-c2ccncc2)nc2ccccc12

>  <inhibition>
7.48% (inactive)

$$$$
>  <Compound>
Cc1cc(=O)oc2c(C(=O)c3ccccc3)c(OCC(N)=O)ccc12

>  <inhibition>
6.93% (inactive)

$$$$
>  <Compound>
CCn1c(SCC(=O)Nc2sc(C)c(C)c2C#N)nnc1C1CC1

>  <inhibition>
5.65% (inactive)

$$$$
>  <Compound>
CC1(C)CC(=O)C(N=Nc2c(F)cccc2F)=C(O)C1

>  <inhibition>
7.79% (inactive)

$$$$
>  <Compound>
COc1ccc(Cc2cc(-c3ccc(F)cc3)n[nH]c2=O)cc1

>  <inhibition>
15.3% (inactive)

$$$$
>  <Compound>
COc1ccc(-c2cc(C(F)(F)F)nc(S(C)(=O)=O)n2)cc1OC

>  <inhibition>
109% (active)

$$$$
>  <Compound>
CC(C)OP(=O)(OC(C)C)C(Nc1ccccc1)c1cccc([N+](=O)[O-])c1 (stereo not given)

>  <inhibition>
-8.06% (inactive)

$$$$

For each of the items listed, what is its inhibition?
1. COc1ccc(-c2cc(C(F)(F)F)nc(SCC(=O)Nc3ccc4c(c3)OCO4)n2)cc1OC
2. CCOc1cc(NC(=O)c2ccccn2)c(OCC)cc1NC(=O)c1ccc(OC)cc1

Completion:
22.4% (inactive)
-5.86% (inactive)

Source listed as PubChem BioAssay AID2732.
